tested on: intracellular proteome of ENR+CD and ENR organoids; experiment: LC-MS/MS TMT proteomics of ENR+CD versus ENR organoids; type: cell-based, C57BL/6 mice; conditions: protein abundance ratio ENR+CD versus ENR organoids, sample pair M1-2; LC-MS/MS TMT proteomics
Endpoint: M1-2 Log2 Median Normalized

Q8K023 (protein, UniProt Q8K023 1-323, looked up, full-length) MNSKIQKIELNDGHSIPVLGFGTYATEEHLKKKSMESTKIAIDVGFCHIDCSHLYQNEEEIGQAILSKIEDGTVKREDIFYTSKLWSTSHRPELVRPSLENSLRKLNLDYVDLYLIHFPVSLKPGNELLPKDEHGNLIFDTVDLCDTWEAMEKCKDAGLAKSIGVSNFNRRQLEMILNKPGLKYKPVCNQVECHLYLNQSKLLAYCKMNDIVLVAYGALGTQRYKYCINEDTPVLLDDPVLCAMAKKYKRTPALIALRYQLDRGIVALAKSFNEERIRENMQVFDFQLASDDMKILDGLDRNLRYFPADMFKAHPNFPFFDEY; −0.99

M1-2 Log2 Median Normalized lookup needed for Q8CGK7 (protein, UniProt Q8CGK7 1-381, looked up, full-length) MGCLGNSSKTAEDQGVDEKERREANKKIEKQLQKERLAYKATHRLLLLGAGESGKSTIVKQMRILHVNGFNPEEKKQKILDIRKNVKDAIVTIVSAMSTIIPPVPLANPENQFRSDYIKSIAPITDFEYSQEFFDHVKKLWDDEGVKACFERSNEYQLIDCAQYFLERIDSVSLVDYTPTDQDLLRCRVLTSGIFETRFQVDKVNFHMFDVGGQRDERRKWIQCFNDVTAIIYVAACSSYNMVIREDNNTNRLRESLDLFESIWNNRWLRTISIILFLNKQDMLAEKVLAGKSKIEDYFPEYANYTVPEDATPDAGEDPKVTRAKFFIRDLFLRISTATGDGKHYCYPHFTCAVDTENIRRVFNDCRDIIQRMHLKQYELL , thanks.
−1.1

Data provenance is patent US11994512B2.
